# Experimental protocol: in vitro
# Applied conditions: human, hek293t cells
# if measured viability at 48 h, 25 µM < 70%: T  # else: F

# Molecule, Assigned label
measured = [
    ("CCN(CC)c1ccc(NC(=O)CCl)cc1", "T"),
    ("O=C(CCl)Cc1ccc(F)cc1F", "T"),
    ("C=CC(=O)N1CCC(C(=O)NCC(C)(C)C2(O)CCCC2)CC1", "F"),
    ("C=CC(=O)N1CCC(C(=O)N2CCCC(C3OCCO3)C2)CC1 (stereo not drawn)", "T"),
    ("CC(Cl)C(=O)NC(=O)Nc1ccc2c(c1)OCCO2 (stereo not drawn)", "F"),
    ("C=CC(=O)N1CCC(C(=O)N(C)CCn2cccn2)CC1", "F"),
]

* * *

Each record here notes measured viability at 48 h, 25 µM.
# Experimental protocol: in vitro
# Applied conditions: human, hek293t cells
Measured attribute: viability at 48 h, 25 µM (%)

# Compound, Reading
records = [
    ("CC(Cl)C(=O)N(Cc1ccc(Cl)cc1)Cc1cnn(C)c1 (stereo not drawn)", 116),
    ("Cc1nn(C)c(C)c1C(NC(=O)CCl)C(F)(F)F (stereo not drawn)", 1.44),
    ("C=CC(=O)NCc1nc(-c2ccccc2)oc1C", 50.4),
    ("O=C(CCl)Nc1ccc(S(=O)(=O)Nc2ccccc2)cc1", 1.09),
    ("C=CCNC(=O)C(C#N)=Cc1cccc2ccccc12", 96.5),
    ("CC(Cl)C(=O)Nc1ccc(OCc2ccccc2)cc1 (stereo not drawn)", 99.7),
]

* * *

# Experimental protocol: in vitro
# Applied conditions: human, hek293t cells
# if measured viability at 48 h, 25 µM < 90%: T  # else: F

# Molecule, Assigned label
data = [
    ("C=CC(=O)NCCCn1cnc2c1CCCC2", "F"),
    ("Cc1ccc(C2CS(=O)(=O)CCN2C(=O)C(C)Cl)o1 (stereo not shown)", "F"),
    ("O=C(CCl)NC1CCC(O)(c2cccc(F)c2)CC1 (stereo not shown)", "T"),
    ("COc1cc(Cl)ccc1CNC(=O)C(C#N)=Cc1ccco1", "F"),
    ("COc1ccc(NC(=O)C(C#N)=Cc2ccc(-c3ccccc3)cc2)cc1", "F"),
    ("C=CC(=O)NC(c1ccc(F)cc1)c1ccn(C)n1 (stereo not shown)", "F"),
    ("CC1(C)C(=O)Nc2ccc(C(=O)CCl)cc21", "T"),
    ("Cc1ccc(CN(C(=O)CCl)C2CC2)o1", "T"),
    ("C=CC(=O)N1CCC(C(=O)Nc2ccc(CC)cc2)CC1", "T"),
    ("CN(C)c1nc(N2CCOCC2)ncc1NC(=O)CCl", "T"),
    ("C=CC(=O)N(C)Cc1cccc(Cl)c1", "T"),
    ("Cc1ccc(NC(=O)N2CCN(C(=O)C(C)Cl)CC2)cc1Cl (stereo not shown)", "T"),
    ("C=CC(=O)N1CCC(C(=O)NCc2cn3ccc(C)nc3n2)CC1", "T"),
    ("C=CC(=O)Nc1ncc(-c2cccc(C)c2)s1", "T"),
    ("CCOc1ccc(C=C(C#N)C(=O)Nc2nccs2)cc1", "F"),
    ("CC(Cl)C(=O)N1CCCCCC1 (stereo not shown)", "F"),
    ("Cn1nnc(CN(C(=O)CCl)C2CCCCCCC2)n1", "T"),
    ("COc1cccc(NC(=O)CN(C)C(=O)CCl)c1", "T"),
    ("N#CC(=Cc1ccco1)C(=O)Nc1cccc2ncccc12", "T"),
    ("O=C(CCl)NCc1cccc(NC(=O)C2CC2)c1", "T"),
    ("O=C(CCl)Nc1ccc2ccccc2c1 [4-B12, 2-chloro-N-(naphthalen-2-yl)acetamide]", "T"),
]
